System: Spontaneously hypertensive rats
ASSAY_REMARKS: Antihypertensive action in spontaneously hypertensive rats (tail-cuff)
Assay type: in vivo, rat
TEST_CONTEXT: 60 mg/kg oral, 1 hour after administration
Catalogue of compounds with associated Antihypertensive effect (Δ mm Hg)
Write the value in mm Hg as a bare number.

Please review the entries below; each comes with its answer.
>>> measurement("O=C1Nc2cc([N+](=O)[O-])ccc2OC1CCCN1CCN(c2ccc(F)cc2)CC1 (stereo not drawn)")
43
>>> measurement("CCOC(=O)c1ccc2c(c1)OC(CCCN1CCN(c3ccc(F)cc3)CC1)C(=O)N2 (stereo not drawn)")
35
>>> measurement("Cc1ccc2c(c1)NC(=O)C(CCCN1CCN(c3ccc(F)cc3)CC1)O2 (stereo not drawn)")
45
>>> measurement("Nc1ccc2c(c1)NC(=O)C(CCCN1CCN(c3ccc(F)cc3)CC1)O2 (stereo not drawn)")
60

Consider the compound CC(=O)Nc1ccc2c(c1)NC(=O)C(CCCN1CCN(c3ccc(F)cc3)CC1)O2 (stereo not drawn) and give its measured Antihypertensive effect (Δ mm Hg).
81

Consider the compound O=C1Nc2ccccc2OC1CCCN1CCN(c2ccc(F)cc2)CC1 (stereo not drawn) and give its measured Antihypertensive effect (Δ mm Hg).
44
